Values were extracted from PubChem BioAssay (NCI).

# Test system: NCI/ADR-RES ovarian
# RUN_DESCRIPTION: NCI tumour cell line growth inhibition, 48 h
Below, each entry is listed alongside its reported TGI.

Consider the following illustrative entries.
MOLECULE: O=C1C=CC(=O)c2c(O)c(N(CCCl)CCCl)c(Cl)c(O)c21
MEAS_VALUE: > 10 µM

MOLECULE: Cc1cc(S(=O)(=O)Nc2n[nH]c(Nc3ccccc3)n2)c(SSc2cc(Cl)c(C)cc2S(=O)(=O)Nc2n[nH]c(Nc3ccccc3)n2)cc1Cl
MEAS_VALUE: > 100 µM

MOLECULE: C[C@@H](C[C@H](CCO)c1ccccc1)c1ccc2ccccc2c1
MEAS_VALUE: 3.4 µM

MOLECULE: Cn1cccc1-c1cc(-c2ccccc2)nc(N)c1C#N
MEAS_VALUE: > 100 µM

MOLECULE: CCN(CCC#N)C(=O)Nc1ccccc1
MEAS_VALUE: > 100 µM

Task: Requested field: TGI. Item: C=C1C(=O)OC2(C)CCC1CC1OC1(C)CCC=C(C)CCC2O (stereo unspecified)
Result: > 100 µM

Task: Requested field: TGI. Item: `CC1=NN2CCC(=O)N=C2S1`
Result: > 100 µM

Task: Requested field: TGI. Item: `O=C1c2cc3ncsc3cc2C(=O)c2c(O)ccc(O)c21`
Result: > 100 µM

Task: Requested field: TGI. Item: `O=c1[nH]c2ccc(C(F)(F)F)cc2nc1C(F)(F)F`
Result: 70.7 µM

Task: Requested field: TGI. Item: `Cc1cc(O)c(C(C)C)cc1C(=S)Nc1ccc(Cl)cc1`
Result: 34.5 µM

Task: Requested field: TGI. Item: `CCCCOc1ccc(S(=O)(=O)/N=C(\NO)Nc2ccc(Cl)cc2)cc1`
Result: 33.1 µM
